tested on: HepG2; assay: cytotoxicity call (relative viability < 0.9); conditions: 10 µM
Screen size: about 39,000 compounds; about 3,300 (8.5%) were called active. Many of the other results were omitted from the sample, so actives are more common in it than they were.
The reply should name one outcome from TRUE for active, FALSE for inactive

The following compounds have reported results that may help.
Could you kindly confirm the outcome this assay logged for `C[C@H](CO)N1C[C@H](C)[C@H](CN(C)Cc2ccc(C(=O)Nc3ccccc3N)cc2)Oc2c(NS(=O)(=O)c3ccc(Cl)cc3)cccc2C1=O` ?
TRUE

Could you kindly confirm the outcome this assay logged for `C[C@@H]1CN([C@@H](C)CO)C(=O)c2cccc(NC(=O)C3CC3)c2O[C@H]1CN(C)Cc1ccc(Oc2ccccc2)cc1` ?
FALSE

Could you kindly confirm the outcome this assay logged for `O=c1[nH]c(=O)c2[nH]c(=O)[nH]c2[nH]1` ?
FALSE

Could you kindly confirm the outcome this assay logged for `O=C(C[C@@H]1CC[C@H]2[C@@H](COC[C@@H](O)CN2S(=O)(=O)c2ccccc2)O1)N1CCc2ccccc2C1` ?
FALSE

Could you kindly confirm the outcome this assay logged for `CN1CCC[C@H](C(=O)O)C1` ?
FALSE

New cases:
Could you kindly confirm the outcome this assay logged for `C[C@@H]1CN([C@H](C)CO)C(=O)c2cccc(NS(=O)(=O)c3ccc(Cl)cc3)c2O[C@H]1CN(C)Cc1ccc(C(=O)Nc2ccccc2N)cc1` ?
FALSE

Taken from the antibiotic and cytotoxicity screens of Wong et al. (2023).
